tested on: Penicillium funiculosum IFO 6345; test: MIC against fungi on potato dextrose agar (Working Example 2); assay type: cell-based; conditions: weight ratio 0:1 (second component alone); 7 days at 28° C.
measure: Minimum inhibitory concentration (ppm) against Penicillium funiculosum
Give bare numbers, in ppm.

List Minimum inhibitory concentration (ppm) against Penicillium funiculosum for every entry below, keeping the order given.
1. [O-][n+]1ccccc1SSc1cccc[n+]1[O-] [f, 2,2-dithio-bis(pyridine-1-oxide)]
2. [Na+].[O-][n+]1ccccc1[S-] [e, 2-pyridine thiol-1-oxide sodium salt]
3. [O-][n+]1ccccc1[S-].[O-][n+]1ccccc1[S-].[Zn+2] [c, Zinc 2-pyridine thiol-1-oxide]
4. [Cu+2].[O-][n+]1ccccc1[S-].[O-][n+]1ccccc1[S-] [d, Copper 2-pyridine thiol-1-oxide]

1. 1
2. 2
3. 1
4. 1
